Experiment: Solubility in different solvents
Assay type: physicochemical
Details: dmso, organic solvent or mixture; read-out: Solubility in DMSO
Known solubility of a selection of molecules

- molecule: "COc1cc2oc3c(O)c4ccc5cc6c(c(O)c5c4c(O)c3c(=O)c2cc1OC)C(=O)N1CCOC1(C)C6 (stereo not drawn) [Cervinomycin A1, reference compound]"
  operator: "="
  solubility (µg/mL): 78
- molecule: "COc1cc2oc3c(c(=O)c2cc1OC)C(=O)c1c(ccc2cc4c(c(OC(C)=O)c12)C(=O)N1CCOC1(C)C4)C3=O (stereo not drawn)"
  operator: "="
  solubility (µg/mL): 5000
- molecule: "COc1cc2oc3c(OC(C)=O)c4ccc5cc6c(c(OC(C)=O)c5c4c(OC(C)=O)c3c(=O)c2cc1OC)C(=O)N1CCOC1(C)C6 (stereo not drawn)"
  operator: ">"
  solubility (µg/mL): 50000
